Experiment: inhibitors of TNFa-induced NFkB p65 translocation, primary screen, imaging, HUVEC, MLSMR starter and 10KST1 sets (AID 438);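 note: compound added about 3h40 before a 20 min TNFalpha stimulation; signal is the nuclear over cytoplasmic p65 intensity ratio per well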
Conditions: HUVEC TNFa-induced p65 nuclear translocation; at 2 µM, hits give high values, 0% TNFa-plus-vehicle, 100% no-TNFa wells
Where a SMILES comes first, the peptide text is derived from it.
endpoint_name: inhibition (%)
Reply numerically in %, unit not repeated.

Please report the measured inhibition for `Cc1ccc(S(=O)(=O)NCC(=O)N(CC(=O)NC2CCCCC2)Cc2ccco2)cc1` 8.1

State its inhibition for this compound: CCOC(=O)N1CCN(C(c2ccc(Cl)cc2)c2sc3nc(C)nn3c2O)CC1 (stereo not given) -8

Give the value of inhibition reported for the following: `CCOc1ccc(Cn2nnc(C(=O)Nc3cc(C)cc(C)c3)c2N)cc1` -0.6

Give the value of inhibition reported for the following: `COc1ccccc1CNC(=O)Nc1cccs1` -6.3

Entry `Cn1c(=O)c2c(nc(NCc3ccco3)n2Cc2ccc(Cl)cc2Cl)n(C)c1=O` needs its inhibition filled in; supply it. 3.3

Check the records and state inhibition for `Cc1nc2ccc(S(=O)(=O)NCC(=O)N3CCc4ccccc4C3)cc2s1` 2.7

Give reported inhibition value for COc1cccc(C2CC(c3ccccc3Cl)n3nc(N)nc3N2)c1 (stereo not given) -1.4

Could you please provide reported inhibition for CSc1nc2c(c(=O)n1C)SC(C)C2 (stereo not given) ? Thanks! 8.7

Identify the reported inhibition for the following entry. CC(=O)C1=C(O)C(=O)N(c2ccc(Br)cn2)C1c1ccccc1F (stereo not given) -2.5

Name the recorded inhibition of the compound listed here: CC1NC2(C(=O)N(Cc3ccccc3)c3ccccc32)C2C(=O)N(c3ccccc3)C(=O)C12 (stereo not given) -5.3

# return recorded inhibition for input `O=C(OCCN1CCOCC1)c1ccc2c(c1)OCCO2` -12.8

Please look at this compound and report its inhibition: `O=C(CN1C(=O)CCS(=O)(=O)c2ccccc21)Nc1cccc(F)c1` -6.8

Quote inhibition reported for `CC(C)Cc1nc(N2CCN(C(=O)Cc3ccccc3)CC2)c(C#N)c2c1COC(C)(C)C2` please. -8.9

Recall and state the measured inhibition for `COC(=O)CCCCCc1ccc(C(C)=O)s1` . -6.3

Using the record for CC(=O)NC(C(=O)NCC(N)=O)C(C)C (stereo not given) (HELM PEPTIDE1{[ac].[CC(C)C(N[*:1])C(=O)[*:2]].G.[am]}$$$$V2.0) , state its measured inhibition. -15.2

Tell us which inhibition value is on record for COc1cccc(C(=O)OC2CCCN(C)C2)c1 (stereo not given) 1.2

Using the record for `Cn1c(=O)c2c(nc(NCc3ccco3)n2Cc2ccccc2Cl)n(C)c1=O` , state its measured inhibition. -4.4

Output measured inhibition for this item: `CCOc1ccccc1NC(=O)CN(C)S(=O)(=O)c1cccc2nsnc12` -16.4

Report measured inhibition; entry is `c1ccc(-c2oc3ncnc(NCCN4CCOCC4)c3c2-c2ccccc2)cc1` -11.4

Check the records and state inhibition for `CCOC(=O)CSc1nc2sc(C)c(C)c2c(=O)n1C` 12.5

Provide one value: measured inhibition of Cc1ccc(Cl)cc1N1CCN(C(=O)C2CCCN(S(=O)(=O)c3cnc[nH]3)C2)CC1 (stereo not given) 10.1

Look up and report measured inhibition for this entry: `Cn1c(=O)c2ncn(CC(=O)NCCOc3ccc(C(C)(C)C)cc3)c2n(C)c1=O` 2.2

Supply inhibition value. Item: `CCOc1ccc(NS(=O)(=O)c2ccc(OCC(=O)N3CCCC3)cc2)cc1` -15.4

Check the records and state inhibition for COc1ccc(C(CNC(=O)c2ccc(OCC3CCCO3)cc2)N2CCOCC2)cc1 (stereo not given) 0.6

Indicate its recorded inhibition; the compound in question is `COCc1nnc(NC(=O)CCCOc2ccccc2)s1` 2.1

Kindly indicate its recorded inhibition. Item: `COc1ccc(C(=O)N(CCCO)Cc2cc3c(C)ccc(C)c3[nH]c2=O)cc1OC` -3

Note inhibition for the compound shown: CCOC(=O)C1=C(CS(=O)(=O)c2ccc(F)c(C)c2)NC(=O)NC1c1ccc(O)c(O)c1 (stereo not given) -0.8

Quick one: give measured inhibition for `CCOC(=O)c1ccc(NC(=O)COc2ccccc2OC)cc1` -1.6

Fill in reported inhibition for this entry: Cn1c(=O)c2[nH]c(NCC3CCCO3)nc2n(-c2ccccc2)c1=O (stereo not given) -0.4

Answer with the recorded inhibition for the compound listed here: `CC(C)(C)NC(=O)CSc1nnc(-c2ccccn2)n1-c1ccccc1` -10.6

Please report the measured inhibition for `COc1cc(S(=O)(=O)N2CCOCC2)ccc1NC(=O)COC(=O)C12CC3CC(CC(C3)C1)C2` -24.9

Please look at this compound and report its inhibition: `CSc1nc2[nH]c3c(c2c2nnnn12)CCCC3` -2.3

Report inhibition, nothing else, for this compound: CCn1c(SCC(=O)Nc2cc(C)ccc2C)nc2c(c1=O)SC(C)C2 (stereo not given) -8.2

Given CCN(CC)C(=O)C1CCCN(Cc2ccc(N(C)C)cc2)C1 (stereo not given) , respond with its inhibition. 0

Input `COCCn1c(C)cc(C(=O)COC(=O)CCN2C(=O)c3ccccc3C2=O)c1C` , output reported inhibition. 3.2

Hello, the source for this data is PubChem BioAssay, in case you need it.
